Source of measurements: paper PMC10397247

Molecular target: T1, 4H2617-AA
T1 chain: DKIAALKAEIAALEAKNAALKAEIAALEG
Assay: two-hybrid library CCmax;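 further: natural log of median RNA to DNA barcode read ratio; higher means stronger binding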
Details: mean of both orientations
endpoint_name: interaction score

>>> numeric_value("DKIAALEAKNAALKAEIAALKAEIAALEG [4H2505-AA]")
-0.92
>>> numeric_value("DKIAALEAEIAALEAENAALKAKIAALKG [4H2078-AA]")
2.35
>>> numeric_value("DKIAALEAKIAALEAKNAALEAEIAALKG [4H2354-AA]")
0.763
>>> numeric_value("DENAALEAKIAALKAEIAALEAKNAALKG [4H1352-AA]")
0.197
>>> numeric_value("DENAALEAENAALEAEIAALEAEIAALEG [4H1153-AA]")
-2.01
>>> numeric_value("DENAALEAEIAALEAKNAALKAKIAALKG [4H1086-AA]")
0.841
>>> numeric_value("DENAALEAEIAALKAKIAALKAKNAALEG [4H1135-AA]")
-0.407
